Biological target: PDGFRα (Homo sapiens (Human))
Sequence (P16234 24-1089): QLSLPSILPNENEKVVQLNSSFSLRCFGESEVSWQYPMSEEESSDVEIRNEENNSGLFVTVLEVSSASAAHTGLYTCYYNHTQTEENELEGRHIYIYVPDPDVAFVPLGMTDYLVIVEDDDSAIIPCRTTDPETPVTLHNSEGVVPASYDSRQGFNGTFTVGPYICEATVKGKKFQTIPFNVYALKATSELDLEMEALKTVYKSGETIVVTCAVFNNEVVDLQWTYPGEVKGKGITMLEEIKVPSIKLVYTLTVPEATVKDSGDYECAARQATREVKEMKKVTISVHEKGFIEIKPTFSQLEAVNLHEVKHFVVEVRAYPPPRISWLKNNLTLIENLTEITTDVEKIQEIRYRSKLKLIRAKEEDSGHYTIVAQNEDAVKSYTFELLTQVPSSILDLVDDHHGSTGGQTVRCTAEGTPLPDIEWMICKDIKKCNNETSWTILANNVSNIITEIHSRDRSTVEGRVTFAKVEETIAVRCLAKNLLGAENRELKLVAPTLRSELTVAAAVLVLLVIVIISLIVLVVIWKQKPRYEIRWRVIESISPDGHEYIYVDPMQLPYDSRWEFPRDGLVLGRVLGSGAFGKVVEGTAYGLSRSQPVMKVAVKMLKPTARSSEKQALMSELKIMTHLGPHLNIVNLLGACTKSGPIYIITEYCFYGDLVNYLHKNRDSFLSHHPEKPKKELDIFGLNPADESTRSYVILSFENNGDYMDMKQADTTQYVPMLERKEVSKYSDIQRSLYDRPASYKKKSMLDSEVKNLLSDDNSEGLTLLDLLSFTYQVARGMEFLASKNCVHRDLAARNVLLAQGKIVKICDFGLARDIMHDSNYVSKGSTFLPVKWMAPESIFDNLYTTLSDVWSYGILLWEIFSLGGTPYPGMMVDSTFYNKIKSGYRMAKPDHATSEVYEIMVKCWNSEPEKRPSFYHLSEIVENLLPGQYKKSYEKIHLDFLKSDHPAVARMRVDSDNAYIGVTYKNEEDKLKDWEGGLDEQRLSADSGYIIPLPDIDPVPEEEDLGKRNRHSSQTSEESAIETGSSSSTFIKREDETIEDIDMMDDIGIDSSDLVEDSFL
Assay: PDGFRα kinase enzyme assay (Promega PDGFRα Kinase Enzyme System, ADP-Glo)
Assay type: biochemical
Conditions: 11-point dose response, 10,000 nM to 0.169 nM; 150 uM ATP; BLQ = below limit of quantitation; read-out: IC50 Values on PDGFRα Kinase Inhibition, IC50
Listed compounds paired with reported IC50

- compound: "CC(C)(C)OC(=O)N1CCCN(c2cnc3cc(C4CCOC4)ncn23)CC1 (stereo not drawn) [Compound 94]"
  IC50: "> 10 µM"
- compound: "CC(C)(C)OC(=O)N1CCN(c2cnn3cc(-c4cncn4CCO)ccc23)CC1 [Compound 230]"
  IC50: "> 10 µM"
- compound: "COc1ccc2c(N3CCN(c4ncc(Cc5ccccc5)cn4)CC3)cnn2c1 [Compound 259]"
  IC50: "> 10 µM"
- compound: "Cn1cc(-c2ccc3c(N4CCN(c5ncc([S+]([O-])c6ccccc6)cn5)CC4)cnn3c2)cn1 (stereo not drawn) [Compound 187]"
  IC50: "0.153 µM"
- compound: "Cn1cc(-c2ccc3c(N4CCN(C(=O)O[C@@H](c5ccccc5)C(F)(F)F)CC4)cnn3c2)cn1 [Compound 64]"
  IC50: "0.0384 µM"
- compound: "Cn1cc(-c2ccc3c(N4CCN(C(=O)CC(C)(C)C)CC4)cnn3c2)cn1 [Compound 17]"
  IC50: "1.6 µM"
- compound: "Cn1cc(-c2ccc3c(N4CCN(C(=O)OCC(C)(C)C)CC4)cnn3c2)cn1 [Compound 3]"
  IC50: "0.883 µM"
- compound: "CN1CCC(c2ccc3c(N4CCN(C(=O)OC(C)(C)C)CC4)cnn3c2)C1 (stereo not drawn) [Compound 223]"
  IC50: "9.25 µM"
- compound: "C[C@@H](OC(=O)N1CCN(c2cnn3nc(-c4cnn(C)c4)ccc23)CC1)c1ccccc1 [Compound 50]"
  IC50: "3.14 µM"
- compound: "Cn1cc(-c2ccc3c(N4CCN(C(=O)Cc5ccccc5)CC4)cnn3c2)cn1 [Compound 18]"
  IC50: "1.65 µM"
- compound: "CC(O)C(O)c1cnc(N2CCN(c3cnn4cc(-c5cnn(C)c5)ccc34)CC2)nc1 (stereo not drawn) [Compound 286]"
  IC50: "1.79 µM"
- compound: "CC(C)(C)OC(=O)N1CCN(c2cnn3cc(C4CCOCC4)ccc23)CC1 [Compound 224]"
  IC50: "> 10 µM"
- compound: "COCCn1cc(-c2cc3ncc(N(C)CCN(C)C(=O)OC(C)(C)C)n3cn2)cn1 [Compound 97]"
  IC50: "> 10 µM"
- compound: "COc1ccc(CN2CCN(c3cnn4cc(-c5cnn(C)c5)ccc34)CC2)cc1 [Compound 253]"
  IC50: "> 10 µM"
- compound: "CN(Cc1ccccc1)C(=O)C1CCN(c2cnn3cc(-c4cnn(C)c4)ccc23)CC1 [Compound 147]"
  IC50: "6.72 µM"
- compound: "Cn1cc(-c2ccc3c(N4CCN(C(=O)OCc5ccccc5C(N)=O)CC4)cnn3c2)cn1 [Compound 280]"
  IC50: "6.18 µM"
- compound: "Cn1cc(-c2ccc3c(N4CCN(c5ncc(C(F)(F)c6ccc(F)cc6)cn5)CC4)cnn3c2)cn1 [Compound 262]"
  IC50: "> 10 µM"
- compound: "CC(C)(C)OC(=O)N1CCN(c2cnn3cc(C4CCCC4)ccc23)CC1 [Compound 214]"
  IC50: "> 10 µM"
- compound: "Cn1cc(-c2ccc3c(N4CCN(c5ncc(Oc6ccccc6)cn5)CC4)cnn3c2)cn1 [Compound 166]"
  IC50: "3.57 µM"
- compound: "Cn1cc(-c2ccc3c(N4CCN(c5ncc([C@H](O)[C@@H]6CCCOC6)cn5)CC4)cnn3c2)cn1 [Compound 192]"
  IC50: "0.031 µM"
- compound: "Cn1cc(-c2ccc3c(C4CCC(COc5ccccc5)CC4)cnn3c2)cn1 (stereo not drawn) [Compound 138]"
  IC50: "9.01 µM"
- compound: "Cc1nn(C)c(C)c1-c1ccc2c(N3CCN(C(=O)OC(C)(C)C)CC3)cnn2c1 [Compound 222]"
  IC50: "0.912 µM"
- compound: "Cn1cc(-c2ccn3c(N4CCC(C(=O)OC(C)(C)C)C4)cnc3n2)cn1 (stereo not drawn) [Compound 110]"
  IC50: "> 10 µM"
- compound: "Cn1cc(-c2ccc3c(NCCNc4ncc(Cc5ccccc5)cn4)cnn3c2)cn1 [Compound 123]"
  IC50: "> 10 µM"
